Where do these numbers come from? They come from patent US12258327B2.

Measured on: EGFR wildtype (WT) (Homo sapiens, UniProt P00533)
Sequence (P00533 25-1210): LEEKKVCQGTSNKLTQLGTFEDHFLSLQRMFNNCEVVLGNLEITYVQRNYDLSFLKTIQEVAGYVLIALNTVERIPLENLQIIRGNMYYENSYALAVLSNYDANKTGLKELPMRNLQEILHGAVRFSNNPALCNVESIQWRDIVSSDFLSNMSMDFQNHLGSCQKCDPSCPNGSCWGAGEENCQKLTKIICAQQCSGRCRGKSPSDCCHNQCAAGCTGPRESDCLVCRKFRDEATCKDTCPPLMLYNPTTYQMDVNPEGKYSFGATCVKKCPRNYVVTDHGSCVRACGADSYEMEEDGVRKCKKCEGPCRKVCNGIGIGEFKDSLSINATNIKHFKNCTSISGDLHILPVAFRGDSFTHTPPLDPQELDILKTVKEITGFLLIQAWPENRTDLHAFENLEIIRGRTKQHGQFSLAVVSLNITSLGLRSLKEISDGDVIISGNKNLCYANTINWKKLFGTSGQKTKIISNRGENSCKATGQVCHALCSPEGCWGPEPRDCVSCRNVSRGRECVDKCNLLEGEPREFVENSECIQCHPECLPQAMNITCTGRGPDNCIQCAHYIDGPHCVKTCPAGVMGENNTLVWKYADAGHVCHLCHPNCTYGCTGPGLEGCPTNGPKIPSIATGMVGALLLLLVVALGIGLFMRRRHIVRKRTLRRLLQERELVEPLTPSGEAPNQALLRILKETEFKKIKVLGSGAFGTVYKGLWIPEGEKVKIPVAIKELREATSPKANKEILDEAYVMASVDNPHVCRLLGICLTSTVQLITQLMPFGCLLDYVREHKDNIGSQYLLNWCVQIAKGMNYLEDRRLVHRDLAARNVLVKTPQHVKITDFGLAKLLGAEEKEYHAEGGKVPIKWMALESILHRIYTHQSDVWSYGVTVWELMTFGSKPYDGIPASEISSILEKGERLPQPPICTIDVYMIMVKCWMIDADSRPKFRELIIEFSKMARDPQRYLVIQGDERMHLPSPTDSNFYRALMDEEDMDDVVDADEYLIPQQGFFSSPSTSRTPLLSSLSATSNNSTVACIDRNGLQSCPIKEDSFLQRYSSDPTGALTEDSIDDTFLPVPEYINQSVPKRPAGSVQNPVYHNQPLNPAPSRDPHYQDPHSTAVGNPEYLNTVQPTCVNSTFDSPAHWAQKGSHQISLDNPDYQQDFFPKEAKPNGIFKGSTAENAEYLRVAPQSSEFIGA
Experiment: Biochemical EGFR kinase assay (Lance Ultra TR-FRET), wildtype
Condition description: Km ATP; read-out: IC50 WT (nM) Km ATP
Procedure: Biochemical EGFR kinase assays were conducted using Lance Ultra time-resolved fluorescence resonance energy transfer (TR-FRET) technology from Perkin-Elmer. […] Each kinase reactions were incubated at room temperature for 1 hour and then stopped by the addition of 4 μL of stop solution (10 mM EDTA). […] After 60 minutes incubation at room temperature the LANCE signal was measured on an EnVision Multilabel Reader (Perkin-Elmer). […]
Catalogue of IC50 values
Number only, in nM; omit the unit.

Molecule	IC50 (nM)
CC(C)c1cc(-c2cnc(Nc3ccnc(-c4cnn(S(=O)(=O)C5CC5)c4)n3)cc2N[C@H]2CC[C@@](C)(O)CC2)on1	42.9
Cn1ccc(-c2cnc(Nc3ccnc(-c4cnn(S(=O)(=O)C5CC5)c4)n3)cc2NC[C@H]2C[C@H](CO)C2)n1	3.2
O=S(=O)(C1CC1)n1cc(-c2nccc(Nc3cc(N[C@H]4CC[C@@H](NCC(F)F)CC4)c(-c4csc(C(F)(F)F)n4)cn3)n2)cn1	105
CN1CCC(n2ccc(-c3cnc(Nc4ccnc(-c5cnn(S(=O)(=O)C6CC6)c5)n4)cc3N[C@H]3CC[C@@](C)(O)CC3)n2)CC1	0.3
Cn1ccc(-c2cnc(Nc3ccnc(-c4cnn(S(=O)(=O)C5CC5)c4)n3)cc2NCC2(C)CCC(O)CC2)n1 (stereo not shown)	53

Exam item: # query: IC50 of entry Cc1cn(-c2cnc(Nc3ccnc(-c4cnn(S(=O)(=O)C5CC5)c4)n3)cc2N[C@H]2CC[C@@](C)(O)CC2)nc1C(F)(F)F
Marked response: 166

Exam item: Now consider O=S(=O)(C1CC1)n1cc(-c2nccc(Nc3cc(N[C@H]4CC[C@@H](F)CC4)c(-c4nc(C(F)F)cs4)cn3)n2)cn1 and answer again.
Marked response: 1210

----------
Measured on: EGFR wildtype (WT) (Homo sapiens, UniProt P00533)
Experiment: Biochemical EGFR kinase assay (Lance Ultra TR-FRET), wildtype
Condition description: IC50 WT (nM) 100 μM ATP, 100 μM ATP
Reported IC50 values for a set of compounds

Compound	Obs value
O=S(=O)(C1CC1)n1cc(-c2nccc(Nc3cc(NC4CCC(NCCO)CC4)c(-c4csc(C(F)(F)F)n4)cn3)n2)cn1 (stereo not shown) [Example 97]	> 10000 nM
O=S(=O)(C1CC1)n1cc(-c2nccc(Nc3cc(N[C@H]4CC[C@@H](O)CC4)c(-c4ccn(C(F)F)n4)cn3)n2)cn1 [Example 80]	214 nM
O=S(=O)(C1CC1)n1cc(-c2nccc(Nc3cc(NCC4CCC(NCCF)CC4)c(-c4ccn(C(F)F)n4)cn3)n2)cn1 (stereo not shown) [Example 132]	4690 nM
O=S(=O)(C1CC1)n1cc(-c2nccc(Nc3cc(N[C@H]4CC[C@@H](CN5CCC5)CC4)c(-c4ccn(C(F)F)n4)cn3)n2)cn1 [Example 208]	128 nM
Cn1nc(-c2cnc(Nc3ccnc(-c4cnn(S(=O)(=O)C5CC5)c4)n3)cc2N[C@H]2CC[C@@H](C(C)(C)O)CC2)cc1C(C)(C)O [Example 298]	504 nM

Exam item: I'd like to know its IC50. The compound in question is O=S(=O)(C1CC1)n1cc(-c2nccc(Nc3cc(NC[C@H]4C[C@H](O)C4)c(-c4ccn(C(F)F)n4)cn3)n2)cn1 [Example 34]
Marked response: > 10000 nM

Exam item: Quick one: O=S(=O)(C1CC1)n1cc(-c2nccc(Nc3cc(NC4CCCCC4O)c(-c4ccn(C(F)F)n4)cn3)n2)cn1 (stereo not shown) [Example 28]
Marked response: > 10000 nM

Exam item: Try this compound too: Cn1ccc(-c2cnc(Nc3ccnc(-c4cnn(S(=O)(=O)C5CC5)c4)n3)cc2N[C@H]2CC[C@](O)(C(F)F)CC2)n1 [Example 231]
Marked response: > 10000 nM

Exam item: Queued: Cn1ccc(-c2cnc(Nc3ccnc(-c4cnn(S(=O)(=O)C5CC5)c4)n3)cc2NCC2(CO)COC2)n1 [Example 228]
Marked response: 2360 nM
